Each entry below carries its recorded IC50.
# Tested on: TDP-43 aggregation in PC12 cells stably expressing GFP-tagged mutant TDP-43 (TDP-43^Q33IK::eGFP)
# method.summary: In vitro efficacy assay: inhibition of TDP-43 inclusions, concentration-response, fluorescence microscopy
# Type: cell-based
# experimental.context: Rattus norvegicus, PC-12, PC12 cells, 1 hour pre-treatment, 15 μM sodium arsenite for 23 hours, 10-point dose response curve

CCN(C(=O)c1cc2ccccc2[nH]1)[C@H]1CCC[C@@H](NCc2ccc(S(C)(=O)=O)cc2)C1; 100 to 500 nM
CCN(C(=O)c1cc2ccccc2[nH]1)[C@H]1CCC[C@@H](NCC2CCOCC2)C1; 100 to 500 nM
CCN(C(=O)c1cc2ccccc2[nH]1)[C@H]1CCC[C@@H](NCc2nc3ccccc3s2)C1; 100 to 500 nM

What the record says about CCN(C(=O)c1nc2cc(F)ccc2[nH]1)[C@H]1CCC[C@@H](NCc2cccc(F)c2)C1 : IC50 is < 100 nM

----------
Each entry below carries its recorded IC50.
# Test system: TDP-43 aggregation in PC12 cells stably expressing GFP-tagged mutant TDP-43 (TDP-43^Q33IK::eGFP)
# method.summary: In vitro efficacy assay: inhibition of TDP-43 inclusions, concentration-response, fluorescence microscopy
# Format: cell-based
# experimental.context: Rattus norvegicus, PC-12, PC12 cells, 1 hour pre-treatment, 15 μM sodium arsenite for 23 hours, 10-point dose response curve

What the record says about CCN(C(=O)c1nc2ccccc2[nH]1)[C@H]1CCC[C@@H](NCc2ccc(F)cc2)C1 : IC50 is < 100 nM

What the record says about CCN(C(=O)c1cc2ccccc2[nH]1)[C@H]1CCC[C@@H](NCc2cc3ccccc3s2)C1 : IC50 is < 100 nM

What the record says about CCN(C(=O)c1cc2ncccc2[nH]1)[C@H]1CCC[C@@H](NCc2cccc(N=[N+]=[N-])c2)C1 : IC50 is < 100 nM

----------
Each entry below carries its recorded IC50.
# Tested on: TDP-43 aggregation in PC12 cells stably expressing GFP-tagged mutant TDP-43 (TDP-43^Q33IK::eGFP)
# method.summary: In vitro efficacy assay: inhibition of TDP-43 inclusions, concentration-response, fluorescence microscopy
# Assay type: cell-based
# experimental.context: Rattus norvegicus, PC-12, PC12 cells, 1 hour pre-treatment, 15 μM sodium arsenite for 23 hours, 10-point dose response curve

These solved cases illustrate the format of a correct answer.
CCN(C(=O)c1cc2ccccc2[nH]1)[C@@H]1C[C@@H](NCc2ccccc2)CS(=O)(=O)C1; > 2000 nM
CCN(C(=O)c1cc2ccccc2[nH]1)[C@H]1CCC[C@@H](NCc2cc(C)on2)C1; < 100 nM
CCN(C(=O)c1cc2ccccc2[nH]1)[C@H]1COC[C@H](NCc2ccccc2)C1; > 2000 nM

What the record says about CCN(C(=O)c1cc2ncccc2[nH]1)[C@H]1CCC[C@@H](NCc2cc3ccccc3o2)C1 : IC50 is < 100 nM

What the record says about CCN(C(=O)c1nc2c(F)cccc2[nH]1)[C@H]1CCC[C@@H](NCc2ccccc2)C1 : IC50 is < 100 nM

What the record says about CCN(C(=O)c1cc2ncccc2[nH]1)[C@H]1CCC[C@@H](NCc2cnoc2)C1 : IC50 is > 2000 nM

What the record says about CCN(C(=O)c1nc2ccccc2[nH]1)[C@H]1CCC[C@@H](NCc2cc3ccccc3s2)C1 : IC50 is < 100 nM

What the record says about CCN(C(=O)c1cc2ccccc2[nH]1)[C@H]1CCC[C@@H](NCc2nccs2)C1 : IC50 is 500 to 2000 nM

What the record says about CCN(C(=O)c1nc2ccccc2[nH]1)[C@H]1CCC[C@@H](NCc2oc3ccccc3c2C#N)C1 : IC50 is < 100 nM
